Taken from ChEMBL document CHEMBL1141864.

Kindly supply the reported Ki values for the records listed here.
Sequence of the target: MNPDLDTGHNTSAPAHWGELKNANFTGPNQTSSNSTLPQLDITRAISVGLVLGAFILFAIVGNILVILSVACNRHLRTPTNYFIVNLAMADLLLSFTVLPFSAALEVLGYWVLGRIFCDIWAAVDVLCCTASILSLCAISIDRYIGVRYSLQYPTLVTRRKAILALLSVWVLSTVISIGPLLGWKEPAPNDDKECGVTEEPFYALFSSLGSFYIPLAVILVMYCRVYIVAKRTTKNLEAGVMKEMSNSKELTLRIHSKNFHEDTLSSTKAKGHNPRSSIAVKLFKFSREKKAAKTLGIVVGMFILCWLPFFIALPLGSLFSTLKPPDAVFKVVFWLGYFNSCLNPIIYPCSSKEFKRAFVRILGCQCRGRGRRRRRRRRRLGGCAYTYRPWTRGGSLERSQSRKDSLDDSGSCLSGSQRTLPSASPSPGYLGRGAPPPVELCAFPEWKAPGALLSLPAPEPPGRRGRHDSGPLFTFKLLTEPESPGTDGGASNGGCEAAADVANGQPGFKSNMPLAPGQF
Note to self: number, then unit, no commentary.

Ki for `COc1cccc(OC)c1OCCNCCOc1ccccc1OCc1ccccc1[N+](=O)[O-]` ? 2510 pM

Repeat with `COc1cccc(OC)c1OCCNCCOc1ccccc1OCc1ccc(C)cc1` 251 pM

Repeat with `COc1cccc(COc2ccccc2OCCNCCOc2c(OC)cccc2OC)c1` 2000 pM

Repeat with `COc1cccc(OC)c1OCCNCCOc1ccccc1OCc1ccc([N+](=O)[O-])cc1` 398 pM

Repeat with `COc1cccc(OC)c1OCCNCCOc1ccccc1OCc1cccc(Cl)c1` 158 pM

Repeat with `COc1cccc(OC)c1OCCNCCOc1ccccc1OCc1cccc([N+](=O)[O-])c1` 794 pM

Repeat with `COc1cccc(OC)c1OCCNCCOc1ccccc1OCc1ccccc1` 537 pM

Repeat with `COc1cccc(OC)c1OCCNCCOc1ccccc1OCc1cccc(C)c1` 251 pM

Repeat with `COc1ccccc1COc1ccccc1OCCNCCOc1c(OC)cccc1OC` 6310 pM

Repeat with `COc1cccc(OC)c1OCCNCCOc1ccccc1OCc1ccccc1C` 794 pM

Repeat with `COc1cccc(OC)c1OCCNCCOc1ccccc1OCc1ccccc1Cl` 562 pM

Repeat with COc1cccc(OC)c1OCCNCCOc1ccccc1OCc1ccc(Cl)cc1 [CLOPENPHENDIOXAN] 1000 pM

---

Molecular target: Alpha-1B adrenergic receptor (Rattus norvegicus) (UniProt P15823)
Sequence (P15823 whole entry): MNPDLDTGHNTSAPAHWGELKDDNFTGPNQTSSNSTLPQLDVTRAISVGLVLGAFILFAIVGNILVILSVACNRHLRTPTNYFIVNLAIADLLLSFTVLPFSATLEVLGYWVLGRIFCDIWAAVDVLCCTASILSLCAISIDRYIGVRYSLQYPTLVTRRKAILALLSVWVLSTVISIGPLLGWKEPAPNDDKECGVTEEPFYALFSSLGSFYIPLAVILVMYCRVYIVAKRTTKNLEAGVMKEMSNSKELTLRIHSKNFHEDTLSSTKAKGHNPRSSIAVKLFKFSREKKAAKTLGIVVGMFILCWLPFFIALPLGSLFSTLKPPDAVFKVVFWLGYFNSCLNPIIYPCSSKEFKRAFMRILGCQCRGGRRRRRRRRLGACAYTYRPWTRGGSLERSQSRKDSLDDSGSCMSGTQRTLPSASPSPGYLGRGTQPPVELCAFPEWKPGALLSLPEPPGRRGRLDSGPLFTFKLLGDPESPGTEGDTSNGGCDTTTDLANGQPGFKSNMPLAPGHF
Experiment: ADRA1B blocking activity assessed by antagonism of (-)-phenylephrine induced contractions on isolated rat spleen
Format: functional, tissue-based
valueType: pKb
The response must contain the number and no unit.

pKb for `COc1cccc(OC)c1OCCNCCOc1ccccc1OCc1ccccc1Cl` ? 7.52

Repeat with `COc1cccc(OC)c1OCCNCCOc1ccccc1OCc1ccccc1[N+](=O)[O-]` 8.56

Repeat with `COc1cccc(OC)c1OCCNCCOc1ccccc1OCc1ccccc1` 8.3

Repeat with COc1cc2nc(N3CCN(C(=O)C4COc5ccccc5O4)CC3)nc(N)c2cc1OC (stereo unspecified) [DOXAZOSIN] 9.51

Repeat with `CCOc1ccc(COc2ccccc2OCCNCCOc2c(OC)cccc2OC)cc1` 8.23

Repeat with `COc1cccc(OC)c1OCCNCCOc1ccccc1OCc1ccc(OC(C)C)cc1` 8.62

Repeat with `COc1cccc(OC)c1OCCNCCOc1ccccc1OCc1ccc(C)cc1` 8.43

Repeat with `COc1cccc(OC)c1OCCNCCOc1ccccc1OCc1ccccc1C` 7.67

Repeat with `COc1cccc(OC)c1OCCNCCOc1ccccc1OCc1cccc(Cl)c1` 7.93

Repeat with `COc1ccccc1COc1ccccc1OCCNCCOc1c(OC)cccc1OC` 8.13

Repeat with `COc1ccc(COc2ccccc2OCCNCCOc2c(OC)cccc2OC)cc1` 9.51

Repeat with COc1cccc(OC)c1OCCNCCOc1ccccc1OCc1ccc(Cl)cc1 [CLOPENPHENDIOXAN] 8.06

Repeat with `COc1cccc(OC)c1OCCNCCOc1ccccc1OCc1cccc(C)c1` 8.2

Repeat with `COc1cccc(OC)c1OCCNCCOc1ccccc1OCc1ccc([N+](=O)[O-])cc1` 9.02

Repeat with `COc1cccc(OC)c1OCCNCCOc1ccccc1OCc1cccc([N+](=O)[O-])c1` 8.74

Repeat with `COc1cccc(COc2ccccc2OCCNCCOc2c(OC)cccc2OC)c1` 8.31

---

Molecular target: 5-hydroxytryptamine receptor 1A (Homo sapiens) (UniProt P08908)
Sequence (whole entry): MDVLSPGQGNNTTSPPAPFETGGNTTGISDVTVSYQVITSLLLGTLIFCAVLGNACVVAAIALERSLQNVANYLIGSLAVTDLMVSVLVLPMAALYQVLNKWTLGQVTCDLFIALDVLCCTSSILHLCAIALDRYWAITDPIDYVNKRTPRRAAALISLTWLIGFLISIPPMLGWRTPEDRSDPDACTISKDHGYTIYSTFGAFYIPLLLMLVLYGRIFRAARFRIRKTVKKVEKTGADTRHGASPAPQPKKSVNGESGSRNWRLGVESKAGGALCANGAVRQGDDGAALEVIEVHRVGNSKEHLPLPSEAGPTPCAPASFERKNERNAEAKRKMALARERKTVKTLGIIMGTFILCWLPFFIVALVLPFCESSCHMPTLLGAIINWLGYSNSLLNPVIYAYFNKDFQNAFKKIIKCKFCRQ
Assay: Agonist efficacy towards cloned human 5HT1A receptor by [35SGTP]gammaS binding in HeLa cells
Format: cell-based
Kindly supply the reported pD2 values for the records listed here.
The response must contain the number and no unit.

pD2 for `COc1cccc(OC)c1OCCNCCOc1ccccc1OCc1cccc([N+](=O)[O-])c1` ? 7.16

Repeat with `COc1cccc(OC)c1OCCNCCOc1ccccc1OCc1ccc([N+](=O)[O-])cc1` 6.15

Repeat with `COc1cccc(OC)c1OCCNCCOc1ccccc1OCc1ccccc1Cl` 7.31

Repeat with COc1cccc(OC)c1OCCNCCOc1ccccc1OCc1ccc(Cl)cc1 [CLOPENPHENDIOXAN] 6.98

Repeat with `COc1cccc(OC)c1OCCNCCOc1ccccc1OCc1ccccc1C` 6.96

---

Biological target: 5-hydroxytryptamine receptor 1A (Homo sapiens) (UniProt P08908)
Experiment: Maximum response towards cloned human 5HT1A receptor
Kindly supply the reported %max values for the records listed here.
Numeric only. Scale: %

%max for `COc1cccc(OC)c1OCCNCCOc1ccccc1OCc1ccc([N+](=O)[O-])cc1` ? 79.1

Repeat with `COc1ccc(COc2ccccc2OCCNCCOc2c(OC)cccc2OC)cc1` 21.6

Repeat with `COc1cccc(OC)c1OCCNCCOc1ccccc1OCc1cccc(Cl)c1` 67.1

Repeat with `COc1cccc(OC)c1OCCNCCOc1ccccc1OCc1ccccc1C` 75.6

Repeat with `COc1cccc(OC)c1OCCNCCOc1ccccc1OCc1ccccc1` 45.7

Repeat with `COc1cccc(OC)c1OCCNCCOc1ccccc1OCc1cccc([N+](=O)[O-])c1` 44.4

Repeat with `COc1cccc(OC)c1OCCNCCOc1ccccc1OCc1ccc(Cl)cc1` 60

Repeat with `COc1cccc(OC)c1OCCNCCOc1ccccc1OCc1ccccc1Cl` 74.4

---

Target: 5-hydroxytryptamine receptor 1A (Homo sapiens) (UniProt P08908)
Assay: Agonist efficacy towards cloned human 5HT1A receptor by [35SGTP]gammaS binding in HeLa cells
Type: cell-based
Kindly supply the reported pD2 values for the records listed here.
The response must contain the number and no unit.

pD2 for `COc1cccc(OC)c1OCCNCCOc1ccccc1OCc1cccc(Cl)c1` ? 7.15

Repeat with `COc1cccc(OC)c1OCCNCCOc1ccccc1OCc1ccccc1` 7.11

Repeat with `COc1ccc(COc2ccccc2OCCNCCOc2c(OC)cccc2OC)cc1` 7.92

---

Molecular target: Alpha-1A adrenergic receptor (Rattus norvegicus) (UniProt P43140)
Sequence (P43140 whole entry): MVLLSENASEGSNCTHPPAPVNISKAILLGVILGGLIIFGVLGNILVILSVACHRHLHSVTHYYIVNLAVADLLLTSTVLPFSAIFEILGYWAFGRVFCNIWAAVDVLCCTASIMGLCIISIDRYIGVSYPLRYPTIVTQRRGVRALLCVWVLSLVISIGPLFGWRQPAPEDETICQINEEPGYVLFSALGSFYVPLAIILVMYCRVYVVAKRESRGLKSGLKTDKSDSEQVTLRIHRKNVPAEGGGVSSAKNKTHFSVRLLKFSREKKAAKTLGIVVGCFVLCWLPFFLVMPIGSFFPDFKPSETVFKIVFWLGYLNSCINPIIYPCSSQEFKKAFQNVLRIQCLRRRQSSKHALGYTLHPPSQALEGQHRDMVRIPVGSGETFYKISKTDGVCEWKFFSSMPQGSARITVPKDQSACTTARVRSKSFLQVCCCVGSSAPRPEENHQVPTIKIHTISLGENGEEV
Assay: ADRA1A blocking activity assessed by antagonism of (-)-NE induced contractions on isolated rat prostatic vas deferens
Format: functional, tissue-based
valueType: pKb
The response must contain the number and no unit.

What reported pKb corresponds to `CCOc1ccc(COc2ccccc2OCCNCCOc2c(OC)cccc2OC)cc1` on Alpha-1A adrenergic receptor (Rattus norvegicus) (UniProt P43140)? 8.5

Repeat with `COc1cccc(OC)c1OCCNCCOc1ccccc1OCc1ccccc1C` 7.81

Repeat with `COc1cccc(COc2ccccc2OCCNCCOc2c(OC)cccc2OC)c1` 8.3

Repeat with `COc1cccc(OC)c1OCCNCCOc1ccccc1OCc1ccccc1[N+](=O)[O-]` 8.2

Repeat with `COc1cccc(OC)c1OCCNCCOc1ccccc1OCc1ccc(OC(C)C)cc1` 8.17

Repeat with `COc1cccc(OC)c1OCCNCCOc1ccccc1OCc1ccc(C)cc1` 8.23

Repeat with `COc1cccc(OC)c1OCCNCCOc1ccccc1OCc1ccc(Cl)cc1` 8.17

Repeat with `COc1cccc(OC)c1OCCNCCOc1ccccc1OCc1cccc(C)c1` 8.3

Repeat with `COc1cccc(OC)c1OCCNCCOc1ccccc1OCc1cccc([N+](=O)[O-])c1` 8.85

Repeat with `COc1cccc(OC)c1OCCNCCOc1ccccc1OCc1ccccc1Cl` 8.56

Repeat with `COc1cccc(OC)c1OCCNCCOc1ccccc1OCc1cccc(Cl)c1` 8.12

Repeat with `COc1ccccc1COc1ccccc1OCCNCCOc1c(OC)cccc1OC` 8.53

Repeat with COc1cc2nc(N3CCN(C(=O)C4COc5ccccc5O4)CC3)nc(N)c2cc1OC (stereo unspecified) 8.69

Repeat with `COc1cccc(OC)c1OCCNCCOc1ccccc1OCc1ccc([N+](=O)[O-])cc1` 8.58

Repeat with `COc1ccc(COc2ccccc2OCCNCCOc2c(OC)cccc2OC)cc1` 8.54

Repeat with `COc1cccc(OC)c1OCCNCCOc1ccccc1OCc1ccccc1` 8.39
